Each entry below carries its reported growth.
# Tested on: OVCAR-5 ovarian
# test.protocol: NCI-60 one-dose screen, 48 h (100 = growth as untreated, 0 = no growth, -100 = all killed)
# condition.details: 10 µM unless noted
This is part of a sample that, as a whole, favours compounds with a hit. Of some 83,000 tested, about 20% had one in any assay.
observed.property: growth (%)

>  <molecule>
Cc1ccc(C(=O)Nc2ccc(CN3CCN(C)CC3)c(C(F)(F)F)c2)cc1C#Cc1cnc(N)cc1C#N

>  <value.measured>
12.8

$$$$
>  <molecule>
CCCN1C(=O)/C(=c2\sc3n(c2=O)C2C(NN=3)N(CC)C(=O)N2CC)c2ccccc21 (stereo not given)

>  <value.measured>
27.5

$$$$
>  <molecule>
Cc1ccc2c(c1)C(C)Cc1c(ncnc1-n1cnc3cc(C)ccc31)N2C (stereo not given)

>  <value.measured>
79

$$$$
>  <molecule>
Cc1n(Cc2ccc3ccccc3c2)c(Cl)c(Cl)[n+]1Cc1ccc2ccccc2c1

>  <value.measured>
51.1

$$$$
>  <molecule>
C[C@@H]1CC[C@@H]2[C@@H]1[C@H](OC(=O)/C=C/c1ccccc1)[C@]1(c3ccccc3)C[C@@H](NC(=O)CO)[C@@]2(C)O1

>  <value.measured>
98.5

$$$$
>  <molecule>
COC(=O)N/N=C/c1c[n+]([O-])c2ccccc2[n+]1[O-]

>  <value.measured>
108

$$$$
>  <molecule>
CON1CCC[C@]2(C)[C@H]3CC[C@@H]4[C@H]5[C@@H](O)C(C)(C)CC[C@]5(CO)CC[C@@]4(C)[C@]3(C)CC[C@H]2C1(C)C

>  <value.measured>
102

$$$$
>  <molecule>
COC(=O)c1nc(-c2ccc(C)cc2)oc1Sc1ccc(C)cc1

>  <value.measured>
97.8

$$$$
>  <molecule>
O=C(Oc1ccc(CO[N+](=O)[O-])cc1)c1ccccc1

>  <value.measured>
-81.2

$$$$
>  <molecule>
Cc1ccc2[nH]c(=S)[nH]c(=O)c2c1

>  <value.measured>
107

$$$$

Provenance of the data: PubChem BioAssay (NCI)
